The following compounds are listed with their measured Ca values.
- Species: Rattus norvegicus
- Test Description: Open TG-GATES - Regimen: Daily Repeat
- Format: toxicity, organism-based, Sprague-Dawley
- Design: regimen Daily Repeat, gender Male, age 6 weeks
- Test Settings: in vivo, po, 100 mg/kg, 72 h, tissue Plasma, route gavage, dose level Low, time 3 day
# output: bare number, implied unit mg/dL

// worked examples, Ca included
- Compound: "COC1=CC(=O)C[C@@H](C)[C@]12Oc1c(Cl)c(OC)cc(OC)c1C2=O [GRISEOFULVIN]"
  Unit Symbol: "mg/dL"
  Ca: 10.8
- Compound: "COc1ccc2[nH]c([S+]([O-])Cc3ncc(C)c(OC)c3C)nc2c1 (stereo not given) [OMEPRAZOLE]"
  Unit Symbol: "mg/dL"
  Ca: 10.6
- Compound: "NC(N)=Nc1nc(CSCCC(N)=NS(N)(=O)=O)cs1 [FAMOTIDINE]"
  Unit Symbol: "mg/dL"
  Ca: 10.7
- Compound: "CCOC(=O)CCC(=O)O[C@H]1[C@H](O[C@@H]2[C@@H](C)[C@H](O[C@H]3C[C@@](C)(OC)[C@@H](O)[C@H](C)O3)[C@@H](C)C(=O)O[C@H](CC)[C@@](C)(O)[C@H](O)[C@@H](C)C(=O)[C@H](C)C[C@@]2(C)O)O[C@H](C)C[C@@H]1N(C)C [ERYTHROMYCIN ETHYLSUCCINATE]"
  Unit Symbol: "mg/dL"
  Ca: 10.3

Let us examine a further case.
Entry under test: CCOc1ccc(NC(=O)CC(C)O)cc1 (stereo not given) [BUCETIN] . Its Ca was 11
